These entries and their values trace back to patent US20250002577A1.

# EC50 values compiled below
target: T1, recombinant human LILRB1-His (human, UniProt Q8NHL6 24-458); experiment: MSD ELISA, coated antigen, transfection supernatant
T1 construct: Bought protein; also called LILRB1 protein
T1 sequence (Q8NHL6 24-458 limits assumed): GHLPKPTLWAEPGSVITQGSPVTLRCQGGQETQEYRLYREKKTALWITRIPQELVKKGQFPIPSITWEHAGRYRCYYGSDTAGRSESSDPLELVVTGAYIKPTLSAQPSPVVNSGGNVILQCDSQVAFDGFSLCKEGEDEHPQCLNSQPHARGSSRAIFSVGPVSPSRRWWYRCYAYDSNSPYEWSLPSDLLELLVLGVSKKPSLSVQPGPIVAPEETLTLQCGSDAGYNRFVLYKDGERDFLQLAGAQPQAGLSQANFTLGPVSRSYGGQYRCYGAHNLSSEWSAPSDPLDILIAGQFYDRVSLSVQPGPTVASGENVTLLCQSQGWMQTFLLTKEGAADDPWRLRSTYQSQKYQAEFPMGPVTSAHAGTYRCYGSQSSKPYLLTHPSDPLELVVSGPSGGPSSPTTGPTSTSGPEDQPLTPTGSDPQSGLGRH

binder	observed-result
B21H4-51 (antibody, human IgG4 S228P, kappa, V domains shown, humanized IgG4/kappa, VH5+VL1; transfection supernatant) VH: QVQLEESGGRLVQPGTSLRLSCAVSGFSLNTYAMTWVRQAPGKGLEWIGIIVASGGTYYASWAKGRFTISRDTSKNTLYLQITSLRAEDTATYFCARGGMGSDWGESLDAFDPWGQGTLVTVSS VL: DIQMTQSPSTLSASVGDRVTITCQASGNIYSFLAWYQQKPGKAPKLLIYTASNLETGVPSRFSGSGSGTEYTLTISSLQPDDFATYYCLGGLYSSDVSYAFGPGTKVEIKR	3.88 ng/mL

(Q) Give EC50 for the following binder: B21H4-44 (antibody, human IgG4 S228P, kappa, V domains shown, humanized IgG4/kappa, VH4+VL4; transfection supernatant) VH: EVQLVESGGGLVQPGGSLRLSCAASGFSLNTYAMTWVRQAPGKGLEWISIIVASGGTYYASWAKGRFTISRDNAKSSVYLQLTSLTTEDTAVYYCARGGMGSDWGESLDAFDPWGQGTMVTVSS VL: DVVMTQSPSTVSASVGDRVTLTCQASGNIYSFLAWYQQKPGQPPKLLIYTASNLETGVPDRFSGSGSGTDYTLTISSLQADDFATYYCLGGLYSSDVSYAFGQGTKVEIKR
(A) 3.23 ng/mL

(Q) Name the recorded EC50 of the item B21H4-31 (antibody, human IgG4 S228P, kappa, V domains shown, humanized IgG4/kappa, VH3+VL1; transfection supernatant) VH: EVQLVESGGDLAQPGGSLRLSCAVSGFSLNTYAMTWVRQAPGKGLEWVSIIVASGGTYYASWAKGRFTISRDNSKNTVYLQMTSLRAEDTALYFCARGGMGSDWGESLDAFDPWGQGTLVTVSS VL: DIQMTQSPSTLSASVGDRVTITCQASGNIYSFLAWYQQKPGKAPKLLIYTASNLETGVPSRFSGSGSGTEYTLTISSLQPDDFATYYCLGGLYSSDVSYAFGPGTKVEIKR in your answer.
(A) 3.58 ng/mL
